Assay: RPL19A-GFP modulators, yeast TOR pathway, confirmation, cell-based, S. cerevisiae, flow cytometry, cherry picks, mother/daughter gates (AID 2270)
Conditions: S. cerevisiae RPL19A-GFP strain, 3 h, measured here: daughter cell gate, at 10 µM, stronger effect = lower value, 100 = same GFP as DMSO wells
Entries and their GFP response vs DMSO
All answers are understood in %, so give the number only.

CCCCCCCCn1c(=O)c(C(=O)OCC)c(O)c2ccccc21 = 99.4
COC(=O)c1cc(NC(=O)c2c(Cl)nc3sccn23)cc(C(=O)OC)c1 = 98.6
Cc1nc(Sc2ccccc2)c(C#N)c(C)c1[N+](=O)[O-] = 99.4
Cc1cccn2c(=O)c3cc(C(=O)NCCc4ccccc4)c(=N)n(CCCn4ccnc4)c3nc12 = 94.7

I am curious: what GFP response vs DMSO value has been reported for COc1ccccc1C(=O)N1CCN(c2cccc(C(F)(F)F)c2)CC1 ?
97.3

Which measured GFP response vs DMSO value corresponds to O=C1CC(SCCO)C(=O)N1c1ccc(Oc2ccccc2)cc1 (centres undefined) ?
98.7

// query GFP response vs DMSO value for entry CCOC(=O)/C(=N\NC(=O)c1ccccc1)c1ccccc1
95.7

Fill in the blank: the reported GFP response vs DMSO of COc1cccc2c1Oc1ncccc1N(C(=O)CCC(=O)NCc1cccc(C)c1)C2 is ____.
98.6

Sample O=c1c2c(-c3ccc(Cl)cc3)csc2ncn1/N=C/c1cccc([N+](=O)[O-])c1O — what was its GFP response vs DMSO?
99.3

Looking for the measured GFP response vs DMSO of C=CCn1c(=N)c(C#N)cc2c(=O)n3ccccc3nc21 , can you help?
95.4

Which GFP response vs DMSO value belongs to COc1cccc(N=Cc2nc(-c3ccccc3)oc2OC(C)=O)c1 ?
96.1

====

Experiment: RPL19A-GFP modulators, yeast TOR pathway, confirmation, cell-based, S. cerevisiae, flow cytometry, cherry picks, mother/daughter gates (AID 2270)
Conditions: S. cerevisiae RPL19A-GFP strain, 3 h, measured here: mother cell gate, at 10 µM, stronger effect = lower value, 100 = same GFP as DMSO wells
Here the recorded GFP response vs DMSO is given for each entry.
Write the value in % as a bare number.

State the recorded GFP response vs DMSO for this entry: CC(=O)c1sc(NC(=O)c2ccco2)nc1-c1ccccc1
96.5

Which GFP response vs DMSO value is on record for O=C(O/N=C(\c1ccccc1)c1ccncc1)c1ccccc1Cl ?
79.7

Which GFP response vs DMSO reading was recorded for the compound Cc1cccc(CS(=O)(=O)c2ncc(Cl)c(C(=O)NCc3ccccc3)n2)c1 ?
99.1

So what does the record say about GFP response vs DMSO for O=[N+]([O-])/C=C/c1cn(Cc2ccc(Cl)cc2)c2ccccc12 ?
103

If you can, please state the reported GFP response vs DMSO value of CCCc1[nH]nc2c1C(c1ccc(OC)c(Cn3nc(C)c(Br)c3C)c1)C(C#N)=C(N)O2 (stereo not drawn) .
96.2

Any idea what its GFP response vs DMSO is? The compound is O=c1/c(=C/c2cccc3ccccc23)sc2ncnn12
107

Quick one: GFP response vs DMSO of O=C(c1cc(-c2cccc(Cl)c2)on1)N1CCc2ccccc2C1 ?
99.5

I have this compound here, O=C(NC(=S)NNC(=O)c1ccc(Cl)cc1Cl)c1cccnc1 , and I need its recorded GFP response vs DMSO.
102

Item CC(=O)Nc1ccc(S(=O)(=O)NC(CC(=O)NCCC2=CCCCC2)C(C)C)cc1 (stereo not drawn) has what recorded GFP response vs DMSO?
101

Recorded GFP response vs DMSO for Cc1ccc(/C(N)=N/OC(=O)c2ccc(F)cc2)cc1 , please?
99.2

Which measured GFP response vs DMSO value corresponds to CN(C(=O)c1ccccc1Cl)c1ccccc1 ?
98.8

GET /values?readout=GFP response vs DMSO&item= O=c1c2ccccc2nc(-c2ccccc2)n1CCN1CCOCC1
101

Which GFP response vs DMSO value belongs to O=C(/C=C/c1ccnc2ccccc12)c1cccs1 ?
99.5

Which GFP response vs DMSO value is on record for O=C(c1c(F)cccc1F)N1CCN(c2ccccc2F)CC1 ?
98.4

Would you kindly share the measured GFP response vs DMSO for CC(=O)[C@@]1(O)CC[C@H]2[C@@H]3CCC4=CC(=O)CC[C@]4(C)[C@H]3CC[C@@]21C ?
105

GFP response vs DMSO for O=C1c2ccccc2C2=Nc3ccccc3SC(c3cccc(F)c3)C12 (stereo not drawn) ?
102

Fill in the blank: the reported GFP response vs DMSO of Cc1oc2c(CN3CCCC(C)C3)c(O)ccc2c(=O)c1-c1ccccc1 (stereo not drawn) is ____.
104

Please look up its GFP response vs DMSO: O=c1[nH]c2c(=O)[nH]cnc2nc1-c1ccccc1
96.3
